Source of measurements: patent US20090042883A1

Tested on: human renal cancer OS-RC-2 cells
Experiment: Growth inhibition test on human renal cancer OS-RC-2 cells (WST-1, % viability)
Type: cell-based
Conditions: test compound 10 μmol/L, 72 hours, cells without test compound = 100%
parameter: Viability of tumor cells (% viability), Human renal cancer OS-RC-2 cells (%)

> print(dat)
                                   compound  unit.text  reading
1  CCc1c(O)cc(O)c(C(=O)c2ccc(OC)cc2)c1CC(=O)N1CCc2cc(OC)c(OC)cc2C1 [Compound 38]          %       18
2  CCc1c(O)cc(O)c(C(=O)c2ccc(OC(F)F)cc2)c1CC(=O)N(CCO)CCOC [Compound 91]          %       17
3  CCc1c(O)cc(O)c(C(=O)c2ccc(OC)c(OC)c2)c1CC(=O)N(CCO)CCOC [Compound 56]          %       18
4  CCc1c(O)cc(O)c(C(=O)c2ccc(OC)cc2)c1CC(=O)N1CCN(c2ncccn2)CC1 [Compound 32]          %       17

* * *

Tested on: human chronic lymphocytic leukemia-derived MEC-1 cells
Test: Growth inhibition test on human chronic lymphocytic leukemia-derived MEC-1 cells (WST-1, % viability)
Format: cell-based
Conditions: test compound 10 μmol/L, 72 hours, cells without test compound = 100%
parameter: Viability of tumor cells (% viability), Human chronic lymphocytic leukemia MEC-1 cells

> print(dat)
                                   molecule  reading
1  CCc1c(O)cc(O)c(C(=O)c2ccc(OC(F)(F)F)cc2)c1CC(=O)N(CCO)CCOC [Compound 88]       5%
2  CCc1c(O)cc(O)c(C(=O)c2ccc(OC)cc2)c1CC(=O)N(CCO)CCOC [Compound 33]       4%
3  CCc1c(O)cc(O)c(C(=O)c2ccc(OC)cc2)c1CC(=O)N1CCN(c2ccccc2C#N)CC1 [Compound 17]       4%
4  CCc1c(O)cc(O)c(C(=O)c2ccc(OC)cc2)c1CC(=O)N(CCO)CCO [Compound 13]       7%
5  CCc1c(O)cc(O)c(C(=O)c2ccc(C(F)(F)F)cc2)c1CC(=O)N(CCO)CCOC [Compound 144]       4%
